List of MIC tested on Candida albicans.

# batch size: 3; output MIC per entry
1. Cc1n[nH]c2c1C1C(=C(N)O2)C(=O)N=C2SC=NN21 (stereo not shown) [Compound 10a]
2. Nc1nn(-c2ccccc2)c2c1c(=O)nc1scnn12
3. COc1ccc(N=Nc2c(N)nn3c(N)c4c(=O)nc5scnn5c4nc23)cc1 [Compound 16b]

-- reply
["625 µg/mL", "1250 µg/mL", "> 1250 µg/mL"]

----------
List of MIC tested on Staphylococcus aureus ATCC 29213.
Numbers only, in µg/mL.

-- ask Identify the measured MIC of Cc1ccc(N=Nc2c(O)nn3c(N)c4c(=O)nc5scnn5c4nc23)cc1 [Compound 17a] for Staphylococcus aureus ATCC 29213.
-- reply 625

-- ask Identify the measured MIC of CC(=O)C1=C(C)OC(N)=C2C(=O)N=C3SC=NN3C12 (stereo not shown) [Compound 8a] for Staphylococcus aureus ATCC 29213.
-- reply 312

-- ask Identify the measured MIC of Cc1cc2nc3c(c(N)n2n1)c(=O)nc1scnn13 [Compound 13] for Staphylococcus aureus ATCC 29213.
-- reply 1250

-- ask Identify the measured MIC of Cc1ccc(N=Nc2c(N)nn3c(N)c4c(=O)nc5scnn5c4nc23)cc1 [Compound 16a] for Staphylococcus aureus ATCC 29213.
-- reply 1250

-- ask Identify the measured MIC of Nc1nn(-c2ccccc2)c2c1c(=O)nc1scnn12 [Compound 5] for Staphylococcus aureus ATCC 29213.
-- reply 625

-- ask Identify the measured MIC of COc1ccc(N=Nc2c(N)nn3c(N)c4c(=O)nc5scnn5c4nc23)cc1 [Compound 16b] for Staphylococcus aureus ATCC 29213.
-- reply 625

-- ask Identify the measured MIC of N#CC1=C(c2ccccc2)OC(N)=C2C(=O)N=C3SC=NN3C12 (stereo not shown) [Compound 9b] for Staphylococcus aureus ATCC 29213.
-- reply 312

-- ask Identify the measured MIC of Nc1c2c(=O)nc3scnn3c2nc2nncn12 [Compound 12] for Staphylococcus aureus ATCC 29213.
-- reply 625

-- ask Identify the measured MIC of Nc1n[nH]c2c1c(=O)nc1scnn12 [Compound 4] for Staphylococcus aureus ATCC 29213.
-- reply 1250

-- ask Identify the measured MIC of Cc1nn(-c2ccccc2)c2c1C1C(=C(N)O2)C(=O)N=C2SC=NN21 (stereo not shown) [Compound 10b] for Staphylococcus aureus ATCC 29213.
-- reply 625

# batch size: 2; output MIC per entry
1. N#Cc1cn2ncsc2nc1=O [Compound 3]
2. CCOC(=O)c1c(N)nc(N)c2c(=O)nc3scnn3c12 [Compound 7]

-- reply
1: 1250; 2: 1250

----------
List of MIC tested on Bacillus cereus UW85.
Numbers only, in µg/mL.

-- ask Identify the measured MIC of Cc1ccc(N=Nc2c(O)nn3c(N)c4c(=O)nc5scnn5c4nc23)cc1 [Compound 17a] for Bacillus cereus UW85.
-- reply 625

As a next step, examine the compound that follows.
-- ask Identify the measured MIC of CC1=C(C(=O)c2ccccc2)C2C(=C(N)O1)C(=O)N=C1SC=NN12 (stereo not shown) for Bacillus cereus UW85.
-- reply 312

----------
List of MIC tested on Bacillus cereus UW85.

Known results for compounds:
-- ask Fill in the blank: the reported MIC of COc1ccc(N=Nc2c(O)nn3c(N)c4c(=O)nc5scnn5c4nc23)cc1 [Compound 17b] is ____.
-- reply 625 µg/mL

-- ask Fill in the blank: the reported MIC of Cc1cc2nc3c(c(N)n2n1)c(=O)nc1scnn13 is ____.
-- reply > 1250 µg/mL

-- ask Fill in the blank: the reported MIC of Nc1n[nH]c2c1c(=O)nc1scnn12 is ____.
-- reply > 1250 µg/mL

-- ask Fill in the blank: the reported MIC of N#Cc1c(N)nc(N)c2c(=O)nc3scnn3c12 is ____.
-- reply 1250 µg/mL

As a next step, examine the compound that follows.
-- ask Fill in the blank: the reported MIC of Cc1n[nH]c2c1C1C(=C(N)O2)C(=O)N=C2SC=NN21 (centres unmarked) [Compound 10a] is ____.
-- reply 625 µg/mL
